Readings of protein stability index for the listed variants
B1: FUT8 (parent)
chain: YAHQPRTADEIPMEPGDIIGVAGN

- Variants of: B1
- test.protocol: protein stability index of a GFP-peptide fusion (GPS, HEK-293T) (PSI 1-6); higher = more stable;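 also: lentivirally expressed fusions sorted by FACS into six bins by GFP to DsRed ratio, PSI derived from sequencing read proportions per bin multiplied by bin number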
- measurement.conditions: c terminus: a fixed tail appended

Reported protein stability index of YAHQPRTADEIPMEPGDIYGVAGN [I19Y] : 4.06

According to the records, this variant YAHQPKTADEIPMEPGDIIGVAGN [R6K] displays protein stability index of 3.99

# input for lookup
Form field protein stability index, entry YAHQPRTADEIPMEPGDIIGVMGN [A22M] : 3.96
